System Name: T1, human GPRC5D (human, UniProt Q9NZD1 1-345)
T1 construct: Full length, on stably transfected cells (HEK293-hGPRC5D, CHO-hGPRC5D); Also used here for the endogenous GPRC5D of the GPRC5D+ myeloma lines MM.1R, MM.1S and NCI-H929; also called hGPRC5D; G-protein-coupled receptor family C group 5 member D
T1 sequence (Q9NZD1 whole entry): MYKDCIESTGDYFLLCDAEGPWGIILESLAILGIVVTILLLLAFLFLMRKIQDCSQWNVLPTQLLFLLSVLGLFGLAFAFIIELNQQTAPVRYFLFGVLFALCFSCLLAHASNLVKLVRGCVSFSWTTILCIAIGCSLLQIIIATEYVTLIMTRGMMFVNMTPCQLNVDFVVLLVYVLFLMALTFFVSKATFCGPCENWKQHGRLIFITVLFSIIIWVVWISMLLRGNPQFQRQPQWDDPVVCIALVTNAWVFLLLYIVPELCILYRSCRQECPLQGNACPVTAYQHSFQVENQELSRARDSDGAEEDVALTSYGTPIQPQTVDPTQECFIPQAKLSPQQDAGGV
Procedure Details: flow cytometry on CHO-hGPRC5D cells
Assay Readout: binding result

| Binder | Result |
| --- | --- |
| anti-GPRC5D chimeric antibody 18C3 (antibody, V domains shown) VH: EVQLVESGGDLVKPGGSLKLSCAASGFTFSSYGMSWVRQTPDKRLEWVATISSGGSYTYYPDSVKGRFTISRDNAKNTLYLQMSSLKSEDTAMYYCARHEARATFDYWGQGTTLTVSS VL: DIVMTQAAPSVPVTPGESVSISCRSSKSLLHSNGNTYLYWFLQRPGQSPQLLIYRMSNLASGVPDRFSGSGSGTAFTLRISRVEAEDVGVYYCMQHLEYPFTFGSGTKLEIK | binds |
| anti-GPRC5D chimeric antibody 2E1 (antibody, V domains shown) VH: QVQLQQPGAELVKPGASVKLSCKASGYTFTRYWMHWVKQRPGQGLDWIGEFNPSNGRINYNEKFKNKATLTIDKSSSTAYMQLSSLTSEDSAVYYCTRGFAYWGQGTLVTVSA VL: QIVLTQSPAIMSASPGERVTMTCSASSTVSYIHWYQQKSGTSPKRWIYDTSKLASGVPARFSGSGSGTSYSLTISSMEAEDAATYYCQQWTTNPWTFGGGTKLEIK | binds |
| anti-GPRC5D chimeric antibody 22C1 (antibody, V domains shown) VH: EVQLQQSGPELVKPGTSMKISCKASGYSFTGYTMNWVKQSHGKNLEWIGLINPYNGGSNYNLKFKGKATLTVDKSSNTAYMELLSLTSEDSAVYYCARWGLRNAMDYWGQGTSVTVSS VL: DIVVTQSPATLSVTPGDSVSLSCRASQSISNNLHWFQQKSHESPRLLIKYASQSISGIPSRFSGSGSGTDFTLSINSVETEDFGMYFCQQSNSWPQTFGGGTKLEIK | binds |
